Numbers sourced from PubChem BioAssay (NCI).

Below: a set of entries, each annotated with reported GI50.
system: OVCAR-3 ovarian; assay: NCI tumour cell line growth inhibition, 48 h

- molecule: "Cn1ccc(=O)c2c(O)c3ccccc3c(O)c21"
  GI50: "> 100000 nM"
- molecule: "COc1ccc(-c2cc(-c3ccccc3)nc(SCCCC(=O)NO)n2)cc1OC"
  GI50: "1320 nM"
- molecule: "CCn1c(=O)c(Oc2ccc(F)cc2F)cc2cnc(NC3CCOCC3)nc21"
  GI50: "> 25000 nM"
- molecule: "COc1cc2c3c(n(CCCNCCNCCN)c(=O)c2cc1OC)-c1cc2c(cc1C3=O)OCO2"
  GI50: "1480 nM"
- molecule: "N#Cc1c(-c2ccccc2)cc(-c2ccccc2)n(CCCC(=O)NO)c1=O"
  GI50: "1610 nM"
- molecule: "O=C(/C=C/c1ccc(Cl)cc1)c1ccc(Nc2nc(Nc3ccc(F)cc3)nc(Nc3ccc(F)cc3)n2)cc1"
  GI50: "32200 nM"
- molecule: "CCO/C=N/C1=C(C#N)C(c2ccc(OC)cc2)c2sc3c(F)cccc3c2O1 (centres undefined)"
  GI50: "2200 nM"
- molecule: "O=C(Nc1ccc(OCc2nnc(-c3ccc(Cl)cc3)o2)c(F)c1)c1ccc(Cl)c(C(F)(F)F)c1"
  GI50: "> 50000 nM"
- molecule: "CNC(=O)NCC1OC(n2cnc3c(NC(=O)Nc4ccccc4)ncnc32)C(O[Si](C)(C)C(C)(C)C)C1CC(=O)N(C)OC (centres undefined)"
  GI50: "5840 nM"

====

system: K-562 leukemia; experiment: NCI tumour cell line growth inhibition, 48 h
Below: a set of entries, each annotated with reported TGI.

- compound: "c1ccc(C2(c3ccccc3)SSC3(S2)C2CC4CC(C2)CC3C4)cc1 (stereo not given)"
  TGI: "> 100 µM"
- compound: "COc1cc2c3c(n(CCCNCCNCCN)c(=O)c2cc1OC)-c1cc2c(cc1C3=O)OCO2"
  TGI: "15.9 µM"
- compound: "O=C(NN1C(=O)C(Cl)C1c1ccc(O)cc1)c1ccccc1O (stereo not given)"
  TGI: "> 100 µM"
- compound: "CC1=CC(C)(C)[C@H]2O[C@@]3(O)C[C@]4(C)[C@H]5C[C@@](C(C)C)(O[C@H]4c4ccoc4)O[C@H]4[C@]5(C3)O[C@@]1(O)[C@]24O"
  TGI: "> 100 µM"
- compound: "COCOc1cc(OCOC)cc(C(=O)Oc2ccccc2)c1"
  TGI: "> 100 µM"
- compound: "O=[N+]([O-])c1cc(Cl)c(Cl)cc1[N+](=O)[O-]"
  TGI: "5.81 µM"
- compound: "COC1OC(COC(C)=O)C(OC(C)=O)C(OC(C)=O)C1NC(=O)N(CCCl)N=O (stereo not given)"
  TGI: "> 100 µM"
- compound: "CC1=NC(C)(C)[N+]([O-])=C1"
  TGI: "> 10 µM"
- compound: "COc1ccc(CC#C/C=C/C(=O)NCC(C)C)cc1"
  TGI: "> 100 µM"
- compound: "Cc1ccc(-n2c(=O)c3nn4c(=O)n(-c5ccc(C)cc5)c(=O)c4nn3c2=O)cc1"
  TGI: "> 100 µM"

====

system: UO-31 renal; assay: NCI tumour cell line growth inhibition, 48 h
assay-endpoint: TGI

- compound: "CCCCCC(=O)N[C@H]1CCc2cc(O)c(O)c(O)c2-c2ccc(SC)c(=O)cc21"
  result: "> 100 µM"
- compound: "O=C(N[C@@H](c1ccccc1)[C@@H](O)C(=O)OCc1ccc2c(c1)OCO2)c1ccccc1"
  result: "> 100 µM"
- compound: "CCC(=O)/C=C/c1ccccc1"
  result: "> 100 µM"
- compound: "CN(C)/C=C1\\CCc2ccc([N+](=O)[O-])cc2C1=O"
  result: "> 100 µM"
- compound: "O=C1C(Cl)C(c2cc3cc(Br)ccc3nc2Cl)N1c1ccc(F)c(Cl)c1 (stereo not given)"
  result: "0.29 µM"
- compound: "CN(C)CCCNC(=O)c1cc2/c(=C\\c3ccc(N(C)C)cc3)c3ccccc3n2[n+]1C"
  result: "> 100 µM"
- compound: "CN(CCCCCl)P(=O)(OCC1=CC(=O)c2ccccc2C1=O)OC[C@H]1O[C@@H](n2cc(F)c(=O)[nH]c2=O)C[C@@H]1O (stereo not given in full)"
  result: "15.9 µM"
- compound: "CNCCCCN(C)/[N+]([O-])=N\\O"
  result: "> 100 µM"
- compound: "COc1cccc(/C=N/[N-]C(=O)c2ccncc2)c1[O-].[Ni+2].[OH3+]"
  result: "> 100 µM"
- compound: "Nc1nc(-c2ccco2)cc(-c2ccco2)n1"
  result: "> 100 µM"
